The following compounds are listed with their measured Decomposition efficiency of daidzin family in concentrated soybean protein values.
- System: Crude diglycosidase
- protocol.notes: Examination of temperature in the conversion into isoflavone aglycons by diglycosidase using soybean materials
- Format: biochemical, Penicillium multicolor IAM7153
- test.parameters: 65° C., heat treatment of enzyme no, reaction time 1 h
The figure you give is taken to be in %; do not add the unit.

Please review the following examples before continuing.
structure.notation	experimental.result
O=c1c(-c2ccc(O)cc2)coc2cc(O[C@@H]3O[C@H](CO)[C@@H](O)[C@H](O)[C@H]3O)ccc12	1.8
CC(=O)OC[C@H]1O[C@@H](Oc2ccc3c(=O)c(-c4ccc(O)cc4)coc3c2)[C@H](O)[C@@H](O)[C@@H]1O	44.3

For record O=c1c(-c2ccc(O)cc2)coc2cc(O)ccc12 the listed Decomposition efficiency of daidzin family in concentrated soybean protein is 53.9

----------
- System: Crude diglycosidase
- protocol.notes: Examination of substrate concentration in the conversion into isoflavone aglycons by diglycosidase using soybean materials;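 further: percent of the isoflavone family total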
- Assay type: biochemical, Penicillium multicolor IAM7153
- test.parameters: roasted soy flour, substrate concentration 10%, heat treatment of enzyme no, reaction time 3 h
- Method: Into 20 mM acetate buffer of pH 4.0 was suspended 0.1 g, 0.25 g, 0.5 g, 1.0 g, or 1.5 g of each of various soybean materials (roasted soy flour (manufactured by Fuji Shokuryo K.K.), soymilk (manufactured by Gitoh Shokuhin K.K.), defatted soybean (manufactured by Fuji Seiyu K.K.), concentrated soybean protein (manufactured by Fuji Seiyu K.K.)). The pH of the suspension was measured and the liquid volume was adjusted to 4.5 mL while the pH was adjusted to 4.0 with 1N hydrochloric acid. […]
The following molecules are listed with their measured Decomposition efficiency: ratio of each glycoside/aglycon within its isoflavone family values.
The figure you give is taken to be in %; do not add the unit.

molecule	unit.spec	experimental.result
CC(=O)OC[C@H]1O[C@@H](Oc2cc(O)c3c(=O)c(-c4ccc(O)cc4)coc3c2)[C@H](O)[C@@H](O)[C@@H]1O [acetylgenistin, 6″-O-acetylgenistin]	%	25.3
COc1cc2c(=O)c(-c3ccc(O)cc3)coc2cc1O[C@@H]1O[C@H](COC(C)=O)[C@@H](O)[C@H](O)[C@H]1O [acetylglycitin, 6″-O-acetylglycitin]	%	9.7

For record COc1cc2c(=O)c(-c3ccc(O)cc3)coc2cc1O [glycitein] the listed Decomposition efficiency: ratio of each glycoside/aglycon within its isoflavone family is 90.3

----------
- Tested on: Crude diglycosidase
- protocol.notes: Examination of pH in the conversion into isoflavone aglycons by diglycosidase using soybean materials
- Type: biochemical, Penicillium multicolor IAM7153
- Parameters: concentration or dose not given beside the values
- test.parameters: pH6.6; heat treatment of enzyme: no; reaction time 3 h
The following molecules are listed with their measured Decomposition efficiency of daidzin family in defatted soybean values.
The figure you give is taken to be in %; do not add the unit.

molecule	experimental.result
O=c1c(-c2ccc(O)cc2)coc2cc(O)ccc12 [daidzein]	56.0

Now consider the entry below.
For record O=C(O)CC(=O)OC[C@H]1O[C@@H](Oc2ccc3c(=O)c(-c4ccc(O)cc4)coc3c2)[C@H](O)[C@@H](O)[C@@H]1O [malonyldaidzin, 6″-O-malonyldaidzin] the listed Decomposition efficiency of daidzin family in defatted soybean is 44.0

----------
- System: Crude diglycosidase
- protocol.notes: Examination of pH in the conversion into isoflavone aglycons by diglycosidase using soybean materials
- Type: biochemical, Penicillium multicolor IAM7153
- test.parameters: pH6.6; heat treatment of enzyme: no; reaction time 1 h
measurement.type: Decomposition efficiency of glycitin family in defatted soybean (%)
The figure you give is taken to be in %; do not add the unit.

molecule	experimental.result
COc1cc2c(=O)c(-c3ccc(O)cc3)coc2cc1O [glycitein]	47.1

Now consider the entry below.
For record COc1cc2c(=O)c(-c3ccc(O)cc3)coc2cc1O[C@@H]1O[C@H](COC(=O)CC(=O)O)[C@@H](O)[C@H](O)[C@H]1O [malonylglycitin, 6″-O-malonylglycitin] the listed Decomposition efficiency of glycitin family in defatted soybean is 52.9

----------
- Tested on: Crude diglycosidase
- protocol.notes: Examination of temperature in the conversion into isoflavone aglycons by diglycosidase using soybean materials
- Assay type: biochemical, Penicillium multicolor IAM7153
- test.parameters: 80° C., heat treatment of enzyme no, reaction time 0 h
The following compounds are listed with their measured Decomposition efficiency of genistin family in defatted soybean values.
The figure you give is taken to be in %; do not add the unit.

Please review the following examples before continuing.
structure.notation	experimental.result
O=c1c(-c2ccc(O)cc2)coc2cc(O)cc(O)c12	14.5
O=c1c(-c2ccc(O)cc2)coc2cc(O[C@@H]3O[C@H](CO)[C@@H](O)[C@H](O)[C@H]3O)cc(O)c12	37.0
CC(=O)OC[C@H]1O[C@@H](Oc2cc(O)c3c(=O)c(-c4ccc(O)cc4)coc3c2)[C@H](O)[C@@H](O)[C@@H]1O	1.5

Now consider the entry below.
For record O=C(O)CC(=O)OC[C@H]1O[C@@H](Oc2cc(O)c3c(=O)c(-c4ccc(O)cc4)coc3c2)[C@H](O)[C@@H](O)[C@@H]1O the listed Decomposition efficiency of genistin family in defatted soybean is 47.0

----------
- Tested on: Crude diglycosidase
- protocol.notes: Examination of substrate concentration in the conversion into isoflavone aglycons by diglycosidase using soybean materials;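 further: percent of the isoflavone family total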
- Type: biochemical, Penicillium multicolor IAM7153
- test.parameters: concentrated soybean protein, substrate concentration 10%, heat treatment of enzyme no, reaction time 3 h
measurement.type: Decomposition efficiency: ratio of each glycoside/aglycon within its isoflavone family (%)
The figure you give is taken to be in %; do not add the unit.

compound	system.under.test	experimental.result
COc1cc2c(=O)c(-c3ccc(O)cc3)coc2cc1O [glycitein]	Crude diglycosidase	73.5
CC(=O)OC[C@H]1O[C@@H](Oc2cc(O)c3c(=O)c(-c4ccc(O)cc4)coc3c2)[C@H](O)[C@@H](O)[C@@H]1O [acetylgenistin, 6″-O-acetylgenistin]	Crude diglycosidase	37.3
COc1cc2c(=O)c(-c3ccc(O)cc3)coc2cc1O[C@@H]1O[C@H](COC(C)=O)[C@@H](O)[C@H](O)[C@H]1O [acetylglycitin, 6″-O-acetylglycitin]	Crude diglycosidase	26.2

For record CC(=O)OC[C@H]1O[C@@H](Oc2ccc3c(=O)c(-c4ccc(O)cc4)coc3c2)[C@H](O)[C@@H](O)[C@@H]1O [acetly-daidzin] the listed Decomposition efficiency: ratio of each glycoside/aglycon within its isoflavone family is 32.9

For record COc1cc2c(=O)c(-c3ccc(O)cc3)coc2cc1O[C@@H]1O[C@H](COC(=O)CC(=O)O)[C@@H](O)[C@H](O)[C@H]1O [malonylglycitin, 6″-O-malonylglycitin] the listed Decomposition efficiency: ratio of each glycoside/aglycon within its isoflavone family is 0.3

----------
The following compounds are listed with their measured Decomposition efficiency of glycitin family in soymilk values.
- System: Crude diglycosidase
- protocol.notes: Examination of pH in the conversion into isoflavone aglycons by diglycosidase using soybean materials
- Type: biochemical, Penicillium multicolor IAM7153
- test.parameters: pH4.8, heat treatment of enzyme yes, reaction time 6 h, 55° C.
- Description: A substrate solution of 450 μL was prepared by suspending 50 mg of each soybean material (roasted soy flour (manufactured by Fuji Shokuryo K.K.), soymilk (manufactured by Gitoh Shokuhin K.K.), defatted soybean (manufactured by Fuji Seiyu K.K.), concentrated soybean protein (manufactured by Fuji Seiyu K.K.)), and adjusting the pH to 2 to 11 with hydrochloric acid or sodium hydroxide. […]
The reply should be a number, written without any unit.

compound	system.under.test	experimental.result
COc1cc2c(=O)c(-c3ccc(O)cc3)coc2cc1O [glycitein]	Crude diglycosidase	6.5
COc1cc2c(=O)c(-c3ccc(O)cc3)coc2cc1O[C@@H]1O[C@H](COC(=O)CC(=O)O)[C@@H](O)[C@H](O)[C@H]1O [malonylglycitin, 6″-O-malonylglycitin]	Crude diglycosidase	39.2

Now consider the entry below.
For record COc1cc2c(=O)c(-c3ccc(O)cc3)coc2cc1O[C@@H]1O[C@H](CO)[C@@H](O)[C@H](O)[C@H]1O [glycitin] the listed Decomposition efficiency of glycitin family in soymilk is 54.3

----------
- Test system: β-Glucosidase derived from A. niger
- protocol.notes: Reactivity toward various isoflavone glycosides (HPLC)
- Assay type: biochemical, Aspergillus niger
- Parameters: unit not given here
- test.parameters: Reaction time 6 h; 55 °C, pH 4.0
measurement.type: glucoside
The reply should be a number, written without any unit.

Please review the following examples before continuing.
compound	glucoside
COc1cc2c(=O)c(-c3ccc(O)cc3)coc2cc1O[C@@H]1O[C@H](COC(=O)CC(=O)O)[C@@H](O)[C@H](O)[C@H]1O [malonylglycitin, 6″-O-malonylglycitin]	90.9
CC(=O)OC[C@H]1O[C@@H](Oc2ccc3c(=O)c(-c4ccc(O)cc4)coc3c2)[C@H](O)[C@@H](O)[C@@H]1O [acetyldaidzin, 6″-O-acetyldaidzin]	91

Now consider the entry below.
Sample O=C(O)CC(=O)OC[C@H]1O[C@@H](Oc2cc(O)c3c(=O)c(-c4ccc(O)cc4)coc3c2)[C@H](O)[C@@H](O)[C@@H]1O [malonylgenistin, 6″-O-malonylgenistin] , system: β-Glucosidase derived from A. niger. Its glucoside is 87.9
